Tested on: MALME3 melanoma viability, CellTiter-Glo luminescence, 24 h
Experiment: growth inhibition of MALME3 cells – cell-based, CellTiter-Glo, cherry-picked, orthogonal assay for MITF inhibitor project, dose response (AID 493191)
Measure: AC50

Example molecules with recorded AC50:
{"Smiles str": "CC(=O)Nc1ccc(S(=O)(=O)NC2=C(N3CCN(C)CC3)C(=O)c3ccccc3C2=O)cc1", "Reported value": "8.92 µM"}
{"Smiles str": "CCn1c(=O)c([N+](=O)[O-])c(Cl)c2ccccc21", "Reported value": "27.9 µM"}

Input: Looking for the measured AC50 of `Cc1cc(C)cc(OCC(=O)N/N=C/c2ccc([N+](=O)[O-])o2)c1` , can you help?
Output: 22.9 µM

Input: Another: `O=C(C#Cc1ccccc1)c1cccc([N+](=O)[O-])c1`
Output: 10.8 µM

Input: Another: `COc1cccc2sc(N3CCN(C(=O)c4ccc([N+](=O)[O-])o4)CC3)nc12`
Output: 23.4 µM

Input: Another: `CCn1c(/C=C/Nc2ccccc2)[n+](CC)c2cc(Cl)c(Cl)cc21`
Output: 29.6 µM

Input: Another: `Cc1c(CCOC(=O)c2ccc(Cl)cc2Cl)sc[n+]1CC(=O)c1ccc(Br)cc1`
Output: 29.3 µM

Input: Another: `O=C1Nc2ccc(Br)cc2/C1=C/C(=O)c1ccc2c(c1)OCO2`
Output: 32 µM

Input: Another: `Cc1cc(C(C)(C)C)cc(C)c1Cn1c2[n+](c3ccc(C(F)(F)F)cc31)CCCCC2`
Output: 24.6 µM

Input: Another: `Cc1ccccc1OCC(=O)N/N=C/c1ccc([N+](=O)[O-])o1`
Output: 26.3 µM

----------
Test system: MALME3 melanoma viability, CellTiter-Glo luminescence, 24 h
Experiment: growth inhibition of MALME3 cells – cell-based, CellTiter-Glo, cherry-picked, orthogonal assay for MITF inhibitor project, dose response (AID 493191)
Measure: AC50

Example compounds with recorded AC50:
{"Compound": "CCN(CC)S(=O)(=O)c1ccc(NC(=O)c2cccnc2Cl)c(NC(=O)c2cccnc2Cl)c1", "AC50": "25.6 µM"}
{"Compound": "CCC(=O)N1CCN(c2ccc(NC(=O)c3ccc([N+](=O)[O-])o3)cc2)CC1", "AC50": "12.7 µM"}
{"Compound": "CCOC(=O)c1nnn(-c2ccc([N+](=O)[O-])cc2[N+](=O)[O-])c1C", "AC50": "16 µM"}
{"Compound": "COc1ccc(C(=O)/C=C/C(=O)N(CC(=O)NC2CCCCC2)Cc2ccccc2)c(O)c1", "AC50": "6.88 µM"}

Input: Looking for the measured AC50 of N=c1n(CCN2CCCC2)c2ccccc2n1CC(O)c1ccc(Cl)c(Cl)c1 (centres undefined) , can you help?
Output: 22.5 µM

Input: Another: `COc1ccc(-c2nn(-c3ccccc3)cc2/C=N/N=C(N)N)cc1OC`
Output: 21.9 µM

----------
Collected AC50 values appear next to each entry.
Test system: MALME3 melanoma viability, CellTiter-Glo luminescence, 24 h
Experiment: growth inhibition of MALME3 cells – cell-based, CellTiter-Glo, cherry-picked, orthogonal assay for MITF inhibitor project, dose response (AID 493191)

{"Molecule": "CN(C)CCCN(C(=O)CCc1ccccc1)c1nc2ccc(Br)cc2s1", "AC50": "19.2 µM"}

Input: API: value(readout= AC50, system= MALME3 melanoma viability, CellTiter-Glo luminescence, 24 h, query= CC1(C(=O)N/N=C/c2ccc([N+](=O)[O-])o2)CC1(Br)Br (stereo not given) )
Output: 34 µM

Input: Another: `CC(=O)N(C)C1=C(N2CCOCC2)C(=O)c2ccccc2C1=O`
Output: 12.7 µM

Input: Another: `Cn1c(SC2=CS(=O)(=O)c3ccccc32)nc2ccccc21`
Output: 19.7 µM

Input: Another: `O=C(CNc1cccc([N+](=O)[O-])c1)N/N=C/c1ccc([N+](=O)[O-])o1`
Output: 16.9 µM

Input: Another: `O=C1C=CC(=C(c2ccc(O)cc2)c2ccc(O)cc2)C=C1`
Output: 29.4 µM

Input: Another: `CC1=C(CC(=O)c2ccccc2)C(=O)c2ccccc2C1=O`
Output: 12.7 µM

Input: Another: `CC(=O)N1CCc2c(sc(NC(=O)c3ccc([N+](=O)[O-])o3)c2C#N)C1`
Output: 9.37 µM

Input: Another: `O=C(Nc1ccc(N2CCCC2)c(Cl)c1)c1ccc([N+](=O)[O-])o1`
Output: 11.1 µM

Input: Another: `Cc1cc(C)c[n+](C2=C([O-])c3ccccc3C(=O)/C2=N\S(=O)(=O)c2cccs2)c1`
Output: 9.5 µM

----------
Tested on: MALME3 melanoma viability, CellTiter-Glo luminescence, 24 h
Experiment: growth inhibition of MALME3 cells – cell-based, CellTiter-Glo, cherry-picked, orthogonal assay for MITF inhibitor project, dose response (AID 493191)
Measure: AC50

{"Compound": "c1ccc2cc3c(NCCN4CCOCC4)ccnc3cc2c1", "Reported value": "4.49 µM"}
{"Compound": "O=C1C=C(N(CCO)Cc2ccccc2)c2ccccc2C1=O", "Reported value": "16 µM"}
{"Compound": "COc1ccc(CNCCC(c2ccc(F)cc2)c2ccc(OC)cc2)cc1 (stereo unspecified)", "Reported value": "22 µM"}
{"Compound": "CCOc1ccc2nc(NC3=NC(c4ccc(OC)cc4)CC(=O)N3)nc(C)c2c1 (stereo unspecified)", "Reported value": "24.6 µM"}
{"Compound": "CN1CCN(C2=C(NS(=O)(=O)c3ccccc3)C(=O)c3ccccc3C2=O)CC1", "Reported value": "11.2 µM"}
{"Compound": "O=C1C(Cl)=C(Nc2ccccc2)C(=O)c2ccccc21", "Reported value": "5.66 µM"}

Input: Looking for the measured AC50 of `CC(C)=NOc1cc(NC(=O)CCl)cc([N+](=O)[O-])c1` , can you help?
Output: 5.64 µM

Input: Another: `CCN(CC)CCCNC1=C(Cl)C(=O)c2ccccc2C1=O`
Output: 5.64 µM

Input: Another: `CCC(=O)OCCNc1cc(Sc2nccn2C)c2nonc2c1[N+](=O)[O-]`
Output: 27.4 µM

Input: Another: `COc1cc(NC(=O)COc2ccccc2[N+](=O)[O-])ccc1NC(=O)c1cccs1`
Output: 26.7 µM

Input: Another: `CC(=O)Nc1sc(C)c(C)c1C(=O)OCC(=O)N(CC(C)C)c1c(N)n(Cc2ccccc2)c(=O)[nH]c1=O`
Output: 6.17 µM

----------
Tested on: MALME3 melanoma viability, CellTiter-Glo luminescence, 24 h
Experiment: growth inhibition of MALME3 cells – cell-based, CellTiter-Glo, cherry-picked, orthogonal assay for MITF inhibitor project, dose response (AID 493191)
Measure: AC50

Example compounds with recorded AC50:
{"Compound": "COc1ccc(S(=O)(=O)N(C(C)=O)c2ccc(OC(C)=O)c3ccccc23)cc1[N+](=O)[O-]", "Reported value": "18.1 µM"}
{"Compound": "CCOC(=O)c1c(C)oc2c(F)c(F)c(F)c(F)c2c1=O", "Reported value": "19.4 µM"}
{"Compound": "CCCCN1C=CC(=C2C(=O)c3ccccc3C2=O)C=C1", "Reported value": "27.3 µM"}
{"Compound": "COC(=O)C1=C(C)N(Cc2ccccc2)C(=NCC(C)C)N[C@H]1c1cccc(C(F)(F)F)c1", "Reported value": "16.9 µM"}
{"Compound": "CCCCn1c(=N)n(CC(=O)c2ccc(Br)s2)c2ccccc21", "Reported value": "33.2 µM"}
{"Compound": "COc1ccc(C[C@H]2CN3C(=NC[C@@H]3C(C)C)N2CCNC(=O)c2ccc(C)c(Br)c2)cc1", "Reported value": "27.1 µM"}
{"Compound": "Cc1cc(C)c2sc(N(CCCN(C)C)C(=O)COc3ccc(Cl)cc3)nc2c1", "Reported value": "32.7 µM"}
{"Compound": "Cc1ccc(NC(=O)c2ncn(CCCN[C@H](C)c3cccc4ccccc34)n2)cc1C", "Reported value": "29.2 µM"}

Input: Looking for the measured AC50 of `CC(=O)Cn1ncc(Br)c(Br)c1=O` , can you help?
Output: 14.6 µM

Input: Another: `COc1ccc(C(=O)/C=C/C(=O)N(CC(=O)NC2CCCCC2)Cc2ccc(F)cc2)c(O)c1`
Output: 7.85 µM

Input: Another: `Cc1nc2ccccc2n1/N=C/c1ccc([N+](=O)[O-])s1`
Output: 26.4 µM

----------
Collected AC50 values appear next to each entry.
Tested on: MALME3 melanoma viability, CellTiter-Glo luminescence, 24 h
Experiment: growth inhibition of MALME3 cells – cell-based, CellTiter-Glo, cherry-picked, orthogonal assay for MITF inhibitor project, dose response (AID 493191)

Example molecules with recorded AC50:
{"Molecule": "O=C(Nc1ccc(N2CCN(C(=O)c3ccccc3)CC2)cc1)c1ccc([N+](=O)[O-])o1", "AC50": "9.02 µM"}
{"Molecule": "CCOc1c(Br)cc(CNC2CCCCCCC2)cc1OC", "AC50": "27.6 µM"}
{"Molecule": "Cc1nc2ccccn2c1C(=O)N/N=C/c1ccc([N+](=O)[O-])o1", "AC50": "34 µM"}
{"Molecule": "N#CCc1ccc(NC(=O)/C=C/c2ccc([N+](=O)[O-])o2)cc1", "AC50": "10.4 µM"}
{"Molecule": "CCN(CC)S(=O)(=O)c1ccc(N2CCCC2)c(NC(=O)c2ccc([N+](=O)[O-])o2)c1", "AC50": "19.5 µM"}
{"Molecule": "COc1ccc2[nH]cc(C(=O)CCl)c2c1", "AC50": "15.1 µM"}

Input: Looking for the measured AC50 of `Cc1cccc(NC2=C(NC(=O)c3ccccc3)C(=O)c3ccccc3C2=O)c1` , can you help?
Output: 25.3 µM

Input: Another: `O=C(N/N=C/c1cccc2cccnc12)c1ccccc1O`
Output: 29.7 µM

Input: Another: `O=C(/C=C/c1cccc([N+](=O)[O-])c1)c1cccs1`
Output: 33.1 µM

Input: Another: `CCN1CCN(c2ccc(NC(=O)c3ccc([N+](=O)[O-])o3)cc2Cl)CC1`
Output: 14.4 µM

Input: Another: Cc1oc(-c2ccc(Cl)cc2)nc1CN1CCC(C(=O)NCCCN2CCCC(C)C2)CC1 (configuration not stated)
Output: 24.4 µM

Input: Another: `C#CCCc1ccccc1/C=[N+](/C)[O-]`
Output: 28.8 µM

Input: Another: `O=c1c(Cl)c(Cl)cnn1-c1ccccc1`
Output: 5.84 µM

Input: Another: `O=c1c(Cl)c2oc3ccccc3nc-2c2ccccc12`
Output: 14.3 µM

Input: Another: CC(C)C1CC(CCNCc2ccc(N(C)C)cc2)(c2ccccc2)CCO1 (configuration not stated)
Output: 29.5 µM

Input: Another: CCCCN(C)CC(O)Cn1cc(/C=C/C(=O)c2cccs2)c2ccccc21 (configuration not stated)
Output: 18.6 µM

Input: Another: `Cc1ccc(S(=O)(=O)/N=C2\C(=O)c3ccccc3C([O-])=C2n2cc[n+](CCC(C)C)c2)cc1`
Output: 11.4 µM

Input: Another: `Cc1ccc(NC(=O)CN(C)C(=O)Cn2ncc(Cl)c(Cl)c2=O)cc1`
Output: 8.81 µM

Input: Another: `COc1cc(CNC2CCCC2)cc(Cl)c1OCc1ccccc1Cl`
Output: 17.6 µM

Input: Another: `Cc1ccc(NC(=O)c2cc(N3C(=O)C=CC3=O)ccc2N2CCOCC2)cc1Cl`
Output: 23.5 µM

Input: Another: `CCOC(=O)CSC1=NC(=O)/C(=C\c2ccc(Cl)cc2)S1`
Output: 16.2 µM

Input: Another: CC1CCCCC1NC(=O)/C(C#N)=C/C=C/c1ccccc1[N+](=O)[O-] (configuration not stated)
Output: 27.5 µM
